Tested On: UniProt:Q9UBN7
Assay: Caliper endpoint assay for HDAC enzymatic activity (HDAC6)
Assay type: biochemical
Condition Details: ratio of HDAC8 IC50/HDAC6 IC50
Parameter Measured: Selectivity (6 v 8) (fold)

# Molecule, Selectivity (6 v 8) (fold)
rows = [
    ("CN1CCC[C@]2(C1)C[C@@H](N1CCc3cc(C(=O)NO)cnc3C1)C2 (single isomer, unassigned)", "III (III: >10-100)"),
    ("CC(=O)N1CCC2(CC1)CC(N1CCc3cc(C(=O)NO)cnc3C1)C2", "III (III: >10-100)"),
    ("O=C(NO)c1cc2c(cn1)CN(C1CC3(CCCCC3)C1)CC2", "III (III: >10-100)"),
    ("O=C(NO)c1cnc2c(c1)CCN(C1CC3(CCCCC3)C1)C2", "IV (IV: >100-1000)"),
    ("O=C(NO)c1cnc2c(c1)CCN(C1CCC3(CCC3)CC1)C2", "IV (IV: >100-1000)"),
    ("O=C(NO)c1cnc2c(c1)CCN([C@H]1C[C@@]3(CCOC3)C1)C2", "IV (IV: >100-1000)"),
]

Next molecule, Selectivity (6 v 8) (fold) to be filled in.
Ask: In one line, give reported Selectivity (6 v 8) (fold) of the entry O=C(NO)c1cnc2c(c1)CCN([C@H]1CCCC3(CCC3)C1)C2 (single isomer, unassigned) .
Reply: IV (IV: >100-1000)

* * *

Tested On: Full length Human HDAC6 (Homo sapiens (Human), UniProt Q9UBN7)
Sequence (Q9UBN7 whole entry): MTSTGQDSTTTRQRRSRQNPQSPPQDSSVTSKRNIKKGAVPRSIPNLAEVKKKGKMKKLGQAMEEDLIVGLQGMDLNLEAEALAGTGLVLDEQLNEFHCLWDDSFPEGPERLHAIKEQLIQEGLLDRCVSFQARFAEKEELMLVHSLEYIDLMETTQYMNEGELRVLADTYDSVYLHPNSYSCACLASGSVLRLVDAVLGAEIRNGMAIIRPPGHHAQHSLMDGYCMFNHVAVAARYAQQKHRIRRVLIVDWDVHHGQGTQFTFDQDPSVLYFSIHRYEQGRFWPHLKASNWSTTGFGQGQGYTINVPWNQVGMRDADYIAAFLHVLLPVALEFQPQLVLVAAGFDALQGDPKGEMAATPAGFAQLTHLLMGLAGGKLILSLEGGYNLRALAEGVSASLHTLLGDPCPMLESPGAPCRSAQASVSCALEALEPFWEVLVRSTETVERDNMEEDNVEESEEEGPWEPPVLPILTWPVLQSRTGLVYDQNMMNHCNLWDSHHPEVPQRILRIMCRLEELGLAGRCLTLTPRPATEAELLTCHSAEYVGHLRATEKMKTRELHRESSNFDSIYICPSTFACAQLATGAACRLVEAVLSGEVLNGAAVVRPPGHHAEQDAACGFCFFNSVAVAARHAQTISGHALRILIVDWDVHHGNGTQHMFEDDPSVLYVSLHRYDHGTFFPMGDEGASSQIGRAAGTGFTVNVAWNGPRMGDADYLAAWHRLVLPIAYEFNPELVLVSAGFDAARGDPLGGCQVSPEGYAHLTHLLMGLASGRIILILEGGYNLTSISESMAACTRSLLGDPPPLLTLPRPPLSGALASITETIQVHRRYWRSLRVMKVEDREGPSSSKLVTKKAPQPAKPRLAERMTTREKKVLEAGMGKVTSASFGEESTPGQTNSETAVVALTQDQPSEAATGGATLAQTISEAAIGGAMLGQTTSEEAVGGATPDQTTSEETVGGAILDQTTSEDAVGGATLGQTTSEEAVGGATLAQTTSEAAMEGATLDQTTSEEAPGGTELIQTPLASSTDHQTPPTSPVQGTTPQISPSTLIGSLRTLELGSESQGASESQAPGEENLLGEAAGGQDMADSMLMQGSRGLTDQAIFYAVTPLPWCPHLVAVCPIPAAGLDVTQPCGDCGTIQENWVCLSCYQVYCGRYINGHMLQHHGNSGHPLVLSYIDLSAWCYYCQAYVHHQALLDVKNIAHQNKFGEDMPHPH
Parameter Measured: IC50

Ask: Assign IC50 to the following record: O=C(NO)c1cnc2c(c1)CCN([C@@H]1CCCC3(CCC3)C1)C2 (single isomer, unassigned) [Compound 194]
Reply: 100 to 1000 nM

Ask: Return IC50 for the following molecule: CN1CCC[C@]2(C1)C[C@@H](N1CCc3cc(C(=O)NO)cnc3C1)C2 (single isomer, unassigned) [Compound 343]
Reply: 100 to 1000 nM

Ask: Kindly indicate its recorded IC50. Item: O=C(NO)c1cc2c(cn1)CN(C1CC3(CCCCC3)C1)CC2 [DDD]
Reply: 1000 to 10000 nM

Ask: Identify measured IC50 associated with O=C(NO)c1cnc2c(c1)CCN([C@H]1CCC3(CCC3)C1)C2 (single isomer, unassigned) [Compound 383]
Reply: 1 to 100 nM

* * *

Tested On: Full length Human HDAC6 (Homo sapiens (Human))
Assay: Caliper endpoint assay for HDAC enzymatic activity (HDAC6)
Type: biochemical
Condition Details: ratio of HDAC8 IC50/HDAC6 IC50
Parameter Measured: Selectivity (6 v 8) (fold)

# Compound, Parameter Measured, Readout Value
data = [
    ("O=C(NO)c1cnc2c(c1)CCN(C1CC3(CNC3)C1)C2", "Selectivity (6 v 8) (fold)", "III (III: >10-100)"),
    ("O=C(NO)c1cnc2c(c1)CCN(C1CC3(CCCC3)C1)C2", "Selectivity (6 v 8) (fold)", "IV (IV: >100-1000)"),
    ("CN1CCC2(CCC(N3CCc4cc(C(=O)NO)cnc4C3)C2)CC1 (stereo not drawn)", "Selectivity (6 v 8) (fold)", "III (III: >10-100)"),
    ("O=C(NO)c1cnc2c(c1)CCN([C@H]1C[C@]3(CCOC3)C1)C2", "Selectivity (6 v 8) (fold)", "IV (IV: >100-1000)"),
    ("O=C(NO)c1cnc2c(c1)CCN(C1CC3(CCNCC3)C1)C2", "Selectivity (6 v 8) (fold)", "III (III: >10-100)"),
    ("O=C(NO)c1cnc2c(c1)CCN(CC13CC4CC(CC(C4)O1)C3)C2", "Selectivity (6 v 8) (fold)", "IV (IV: >100-1000)"),
]

Ask: Give reported Selectivity (6 v 8) (fold) value for CN1CCC2(CC1)CC(N1CCc3cc(C(=O)NO)cnc3C1)C2
Reply: III (III: >10-100)

Ask: Please supply the value of reported Selectivity (6 v 8) (fold) for the item O=C(NO)c1cnc2c(c1)CCN(C1CC3(CCOCC3)C1)C2
Reply: III (III: >10-100)

Ask: For the compound CN1CCC[C@]2(C1)C[C@H](N1CCc3cc(C(=O)NO)cnc3C1)C2 (single isomer, unassigned) , give its measured Selectivity (6 v 8) (fold) value.
Reply: III (III: >10-100)
